The measurements presented in this section are drawn from ChEMBL document CHEMBL5512659.

In this section, each of the compounds is paired with its reported MIC.
tested on: Enterococcus faecalis; test: Antibacterial activity against multidrug resistant Enterococcus faecalis ATCC 51299; type: functional
Please state the figure in µg/mL; there is no need to write the unit.

RECORD_SMILES	MEASURED_ENDPOINT	REPORTED
CCCCCCNCCCCOc1ccc(-c2oc3cc(OC)cc(O)c3c(=O)c2CCCCCC)c(OCCCCNCCCCCC)c1	MIC	64
CCCCCCCCCCCCc1c(-c2ccc(O)cc2O)oc2cc(O)cc(O)c2c1=O	MIC	64
CCCCCCc1c(-c2ccc(O)cc2O)oc2cc(OC)cc(O)c2c1=O	MIC	8
CCCCCCc1c(-c2ccc(OCCCCNCc3ccc(F)cc3)cc2OCCCCNCc2ccc(F)cc2)oc2cc(OC)cc(O)c2c1=O	MIC	16
CCCCCCCCCCc1c(-c2ccc(O)cc2O)oc2cc(O)cc(O)c2c1=O	MIC	32
CCCCCCCCc1c(-c2ccc(O)cc2O)oc2cc(O)cc(O)c2c1=O	MIC	16

Here's the next entry for you.
Qu. // lookup MIC | system=Enterococcus faecalis | key= COc1cc(O)c2c(=O)c(CCC/C=C(\C)CCC=C(C)C)c(-c3ccc(O)cc3O)oc2c1
Ans. 32

* * *

system: Staphylococcus aureus; assay: Antibacterial activity against Staphylococcus aureus clinical isolate 29; format: functional
Label criterion met when MIC is strictly below 4 µg/mL; at or above that, label criterion not met.

Recorded results for 6 molecules are shown here.
In [3]: df
Out[3]:
                              record_smiles    experimental_target              group
0  CCCCCCc1c(-c2ccc(OCCCCNCc3ccc(Br)cc3)cc2OCCCCNCc2ccc(Br)cc2)oc2cc(OC)cc(O)c2c1=O  Staphylococcus aureus  criterion not met
1  CCCCCCc1c(-c2ccc(OCCCCNC3CCCCC3)cc2OCCCCNC2CCCCC2)oc2cc(OC)cc(O)c2c1=O  Staphylococcus aureus      criterion met
2  CCCCCCc1c(-c2ccc(OCCCCN(C)C)cc2OCCCCN(C)C)oc2cc(OC)cc(O)c2c1=O  Staphylococcus aureus      criterion met
3  CCCCCCc1c(-c2ccc(OCCCCNCc3ccc(C(F)(F)F)cc3)cc2OCCCCNCc2ccc(C(F)(F)F)cc2)oc2cc(OC)cc(O)c2c1=O  Staphylococcus aureus  criterion not met
4  CCCCCCc1c(-c2ccc(OCCCCNCc3ccc(Cl)cc3)cc2OCCCCNCc2ccc(Cl)cc2)oc2cc(OC)cc(O)c2c1=O  Staphylococcus aureus  criterion not met
5  CCCCCCc1c(-c2ccc(OCCCCN(CC)CC)cc2OCCCCN(CC)CC)oc2cc(OC)cc(O)c2c1=O  Staphylococcus aureus      criterion met

Qu. Strictly below 4 µg/mL: is that where MIC of CCCCCCc1c(-c2ccc(OCCCCCCN(C)C)cc2OCCCCCCN(C)C)oc2cc(OC)cc(O)c2c1=O sits?
Ans. criterion met

Qu. Strictly below 4 µg/mL: is that where MIC of CCCCCCc1c(-c2ccc(OCCCCNCCC)cc2OCCCCNCCC)oc2cc(OC)cc(O)c2c1=O sits?
Ans. criterion met

Qu. Strictly below 4 µg/mL: is that where MIC of CCCCCCc1c(-c2ccc(OCCCCN(CCC)CCC)cc2OCCCCN(CCC)CCC)oc2cc(OC)cc(O)c2c1=O sits?
Ans. criterion not met

Qu. Strictly below 4 µg/mL: is that where MIC of CCCCCCc1c(-c2ccc(OCCN(C)C)cc2OCCN(C)C)oc2cc(OC)cc(O)c2c1=O sits?
Ans. criterion met
